Test system: ATS189
procedureDetails: qHTS profiling for inhibitors of Plasmodium falciparum proliferation (AID 504749); note: nearly all actives have a fitted effect of over 60% in size
testSettings: P. falciparum in erythrocytes, SYBR Green DNA, 72 h; series mostly up to 28.7 µM
Records with an inconclusive call do not appear. Active and inactive are the calls of the source. Calls come from the whole dose curve; as a rule, active = well fitted inhibition curve with a large enough effect; inconclusive = small, poorly fitted or top-dose-only effect; inactive = flat fitted curve, though single readings scatter.
Tick one outcome: active, inactive

## Input # outcome recorded in this test, key = Clc1ccc(COC(Cn2ccnc2)c2ccc(Cl)cc2Cl)cc1 (stereo not given)
## Output active

## Input # outcome recorded in this test, key = NCC1(CC(=O)O)CCCCC1
## Output inactive

## Input # outcome recorded in this test, key = CCN(CC)CCOC(=O)C(O)(c1ccccc1)c1ccccc1
## Output inactive

## Input # outcome recorded in this test, key = Clc1cccc(N2CCNCC2)c1
## Output inactive

## Input # outcome recorded in this test, key = CCC(COC(=O)c1cc(OC)c(OC)c(OC)c1)(c1ccccc1)N(C)C (stereo not given)
## Output inactive

## Input # outcome recorded in this test, key = CCCC1CCCCN1 (stereo not given)
## Output inactive

## Input # outcome recorded in this test, key = CN1CCN(C(=O)O[C@H]2c3nccnc3C(=O)N2c2ccc(Cl)cn2)CC1
## Output inactive

## Input # outcome recorded in this test, key = CC(=O)[C@H]1CC[C@H]2[C@@H]3CC[C@H]4C[C@H](O)CC[C@]4(C)[C@H]3C(=O)C[C@]12C
## Output inactive

## Input # outcome recorded in this test, key = C[C@]12C/C(=C/O)C(=O)C[C@@H]1CC[C@@H]1[C@@H]2CC[C@@]2(C)[C@H]1CC[C@]2(C)O
## Output inactive

## Input # outcome recorded in this test, key = CC(C)(C)CC(C)(C)c1ccc(O)cc1
## Output inactive

----------
System: UISO
procedureDetails: qHTS assay to identify novel small-molecules to repurpose for Merkel cell carcinoma treatment (AID 1296009); note: nearly all actives have a fitted effect of over 60% in size; note: potency is the fitted concentration of half-maximal effect
testSettings: MCC and control cell lines, CellTiter-Glo viability, 72 h; series mostly up to 46 µM
Inconclusive results are not listed. The source made the active and inactive calls. The call rests on the fitted dose curve; in most records, active means well fitted inhibition curve with a large enough effect; inconclusive means small, poorly fitted or top-dose-only effect; inactive means flat fitted curve, though single readings scatter.
readout: Potency

Some compounds with known Potency results, for comparison:
## Input Enter reported Potency observed with UISO for CCCN1CCC[C@@H]2Cc3nc(N)ncc3C[C@H]21
## Output 29.9 µM (active)

## Input Enter reported Potency observed with UISO for Cc1ccc(-c2nc3ccc(C)cn3c2CC(=O)N(C)C)cc1
## Output inactive

## Input Enter reported Potency observed with UISO for O=c1oc2ccccc2c(O)c1C(CC(O)c1ccc(-c2ccc(Br)cc2)cc1)c1ccccc1 (stereo unspecified)
## Output inactive

## Input Enter reported Potency observed with UISO for Oc1ccccc1-c1ccccc1
## Output inactive

Others:
## Input Enter reported Potency observed with UISO for Oc1cc(Cl)ccc1Oc1ccc(Cl)cc1Cl
## Output 44.2 µM (active)

## Input Enter reported Potency observed with UISO for CN1CCN(C(=O)O[C@H]2c3nccnc3C(=O)N2c2ccc(Cl)cn2)CC1
## Output inactive

----------
testSettings: Ebola virus entry assay, ratio channel
Activity calls are given as the source filed them.
Tick one outcome: active, inactive

## Input # outcome recorded in this test, key = NCCC(O)(P(=O)(O)O)P(=O)(O)O
## Output inactive

## Input # outcome recorded in this test, key = CC1NCCOC1c1ccccc1 (stereo not drawn)
## Output inactive

## Input # outcome recorded in this test, key = O=C1c2cccc3c2[C@H](CCC3)CN1[C@@H]1CN2CCC1CC2
## Output active

## Input # outcome recorded in this test, key = CC(C)(O)c1ccccc1CC[C@@H](SCC1(CC(=O)O)CC1)c1cccc(/C=C/c2ccc3ccc(Cl)cc3n2)c1
## Output inactive

## Input # outcome recorded in this test, key = CCOC(=O)C1(c2ccccc2)CCN(CCC(C#N)(c2ccccc2)c2ccccc2)CC1
## Output active

## Input # outcome recorded in this test, key = OC(Cn1cncn1)(Cn1cncn1)c1ccc(F)cc1F
## Output inactive

## Input # outcome recorded in this test, key = CC(=O)[C@]1(O)Cc2c(O)c3c(c(O)c2[C@@H](O[C@H]2C[C@H](N)[C@H](O)[C@H](C)O2)C1)C(=O)c1ccccc1C3=O
## Output active

## Input # outcome recorded in this test, key = CCC[C@H](N[C@@H](C)C(=O)N1[C@H](C(=O)O)C[C@@H]2CCCC[C@@H]21)C(=O)OCC
## Output inactive

## Input # outcome recorded in this test, key = CCOC(=O)[C@H](CCc1ccccc1)N[C@@H](C)C(=O)N1Cc2ccccc2C[C@H]1C(=O)O
## Output inactive

## Input # outcome recorded in this test, key = Cc1onc(-c2c(Cl)cccc2Cl)c1C(=O)N[C@@H]1C(=O)N2[C@@H]1SC(C)(C)[C@@H]2C(=O)O
## Output inactive

## Input # outcome recorded in this test, key = C#C[C@]1(O)CC[C@H]2[C@@H]3CCC4=Cc5oncc5C[C@]4(C)[C@H]3CC[C@@]21C
## Output active

## Input # outcome recorded in this test, key = CNCCc1ccccn1
## Output inactive

## Input # outcome recorded in this test, key = Cc1nc(N)nc(N)c1-c1ccc(Cl)c(Cl)c1
## Output active

----------
procedureDetails: Primary qHTS to identify inhibitors of SARS-CoV-2 cell entry (AID 1645846); note: nearly all actives have a fitted effect of over 45% in size
testSettings: SARS-CoV-2 pseudovirus cell entry assay, luminescence; series mostly up to 57.1 µM
Records with an inconclusive call do not appear. The source made the active and inactive calls. Calls follow the shape of the full dose curve.
Tick one outcome: class 1 for active, class 0 for inactive

## Input # outcome recorded in this test, key = N[C@@H]1CONC1=O
## Output class 0

## Input # outcome recorded in this test, key = CCCCCOC(=O)Nc1nc(=O)n([C@@H]2O[C@H](C)[C@@H](O)[C@H]2O)cc1F
## Output class 0

## Input # outcome recorded in this test, key = O=C1N=C(O)CN1/N=C/c1ccc(-c2ccc([N+](=O)[O-])cc2)o1
## Output class 0

## Input # outcome recorded in this test, key = Cc1cc(SCc2sc(-c3ccc(C(F)(F)F)c(F)c3)nc2C)ccc1OCC(=O)O
## Output class 0

## Input # outcome recorded in this test, key = N[C@@H]1C[C@H]1c1ccccc1
## Output class 0

## Input # outcome recorded in this test, key = C=C(CC)C(=O)c1ccc(OCC(=O)O)c(Cl)c1Cl
## Output class 1

## Input # outcome recorded in this test, key = Cc1ccc(NC(=O)c2ccc(CN3CCN(C)CC3)cc2)cc1Nc1nccc(-c2cccnc2)n1
## Output class 1

## Input # outcome recorded in this test, key = COc1ccccc1OCCNCC(O)COc1cccc2[nH]c3ccccc3c12 (stereo not given)
## Output class 1

## Input # outcome recorded in this test, key = C[C@@H]1C[C@H]2[C@@H]3CCC4=CC(=O)C=C[C@]4(C)[C@@]3(F)[C@@H](O)C[C@]2(C)[C@@]1(O)C(=O)CO
## Output class 0

## Input # outcome recorded in this test, key = CCN(CC)CCNC(=O)c1cc(Cl)c(N)cc1OC
## Output class 0

----------
System: HEK293
procedureDetails: Cytotoxic Profiling of Annotated Libraries Using Quantitative High-Throughput Screening (AID 1296008); note: nearly all actives have a fitted effect of over 60% in size; note: potency is the fitted concentration of half-maximal effect
testSettings: Five cell lines viability, CellTiter-Glo ATP luminescence, 48-72 h
Records with an inconclusive call do not appear. Active and inactive are the calls of the source. Calls come from the whole dose curve; as a rule, active = well fitted inhibition curve with a large enough effect; inconclusive = small, poorly fitted or top-dose-only effect; inactive = flat fitted curve, though single readings scatter.
readout: Potency

Some molecules with known Potency results, for comparison:
## Input # get_value(readout='Potency', item= c1ccc2c(c1)OCC(C1=NCCN1)O2 (stereo not given) )
## Output 18.8 µM (active)

## Input # get_value(readout='Potency', item= COc1ccc(Cc2nccc3cc(OC)c(OC)cc23)cc1OC )
## Output 8.41 µM (active)

## Input # get_value(readout='Potency', item= FC(F)(F)c1cccc(C2=CCN(CCc3ccc4ccccc4c3)CC2)c1 )
## Output inactive

## Input # get_value(readout='Potency', item= O=c1oc2ccccc2c(O)c1C(CC(O)c1ccc(-c2ccc(Br)cc2)cc1)c1ccccc1 (stereo not given) )
## Output inactive

Switching to the query record.
## Input # get_value(readout='Potency', item= CNC(=O)N1N=C(c2ccc(N)cc2)c2cc3c(cc2CC1C)OCO3 (stereo not given) )
## Output 23.1 µM (active)

----------
Provide the reported max response of each item.
Test system: CRL-7250
procedureDetails: Cytotoxic Profiling of Annotated Libraries Using Quantitative High-Throughput Screening (AID 1296008); note: nearly all actives have a fitted effect of over 60% in size; for max response: % is set by controls: 0 for no effect and ±100 for the full control effect
testSettings: Five cell lines viability, CellTiter-Glo ATP luminescence, 48-72 h; hits give low values
Results filed as inconclusive are left out.
Field format: number, assumed %, no unit text.

## Input # get_value(readout='max response', item= O=C1CC[C@@]2(O)[C@H]3Cc4ccc(O)c5c4[C@@]2(CCN3CC2CC2)[C@H]1O5 )
## Output -7.93

## Input # get_value(readout='max response', item= CN(C)[C@@H]1C(=O)C(C(N)=O)=C(O)[C@@]2(O)C(=O)C3=C(O)c4c(O)cccc4[C@@](C)(O)[C@H]3C[C@@H]12 )
## Output -3.81

## Input # get_value(readout='max response', item= O=C(NC(O)C(Cl)(Cl)Cl)NC(O)C(Cl)(Cl)Cl (stereo unspecified) )
## Output 1.53

## Input # get_value(readout='max response', item= NCCc1cc(O)c(O)cc1O )
## Output 3.51

## Input # get_value(readout='max response', item= O=c1oc2ccccc2c(O)c1C(CC(O)c1ccc(-c2ccc(Br)cc2)cc1)c1ccccc1 (stereo unspecified) )
## Output 0.6

## Input # get_value(readout='max response', item= Oc1cccc2cccnc12 )
## Output 3.76

## Input # get_value(readout='max response', item= CC1=C2C[C@@H]3[C@@H](CC=C4C[C@@H](O)CC[C@@]43C)[C@@H]2CC[C@]12O[C@H]1C[C@H](C)CN[C@H]1[C@H]2C )
## Output 4.78

## Input # get_value(readout='max response', item= CC(=O)[C@H]1CC[C@H]2[C@@H]3CC[C@H]4C[C@H](O)CC[C@]4(C)[C@H]3C(=O)C[C@]12C )
## Output -2.84

## Input # get_value(readout='max response', item= O=C(O)c1ccc2[nH]cc(CCCCN3CC=C(c4ccccc4)CC3)c2c1 )
## Output -7.24

## Input # get_value(readout='max response', item= Cn1c(CCCC(=O)O)nc2cc(N(CCCl)CCCl)ccc21 )
## Output 3.94

## Input # get_value(readout='max response', item= CCOP(=S)(OCC)Oc1cc(C)nc(C(C)C)n1 )
## Output 1.07

## Input # get_value(readout='max response', item= Cc1ccc(S(=O)(=O)N[C@@H](CCCCN)C(=O)CCl)cc1 )
## Output 3.77

## Input # get_value(readout='max response', item= O=[N+]([O-])c1cc([As](=O)(O)O)ccc1O )
## Output -0.161

## Input # get_value(readout='max response', item= Clc1ccc(COC(Cn2ccnc2)c2ccc(Cl)cc2Cl)cc1 (stereo unspecified) )
## Output 1.02

## Input # get_value(readout='max response', item= Cc1ccc(-c2nc3ccc(C)cn3c2CC(=O)N(C)C)cc1 )
## Output 3.97

## Input # get_value(readout='max response', item= CCN(CC)CCOC(=O)C(O)(c1ccccc1)c1ccccc1 )
## Output -0.239
